Data origin, for the record: patent US20260034253A1

Assay: in vivo
Details: female, athymic nude, mouse, tumor (HT1376 xenograft), total radioactivity
Bridge positions count the residues as written; N and C are the ends. Ends that are not written are not given here. * marks the point of attachment. DOTA = O=C(O)CN1CCN(CC(=O)O)CCN(CC(=O)*)CCN(CC(=O)O)CC1; PEG4 = NCCOCCOCCOCCOCCC(=O)O
// assign met if tissue uptake at 4 h falls strictly below 2 %ID/g, else not met (ties count as not met)

[Q] Quick check: does {DOTA-PEG4}-CEYDEQFFTALKALRGGDICYYIQASFNYLPDLCIEEILDNLGCS (disulfide 1-34, 20-44) [Compound C113] have tissue uptake at 4 h under 2 %ID/g?
[A] met

[Q] Quick check: does {DOTA-PEG4}-CEYDEEFFTALSRLRGGDICYYIQQAFQYLPGLCIEEILDNLGCS (disulfide 1-34, 20-44) [Compound C133] have tissue uptake at 4 h under 2 %ID/g?
[A] met

[Q] Quick check: does {DOTA-PEG4}-CEYDEQFFTALSSLRGGDICYYIQEQFANVPGICIEEILDNLGCS (disulfide 1-34, 20-44) [Compound C137] have tissue uptake at 4 h under 2 %ID/g?
[A] met

[Q] Quick check: does {DOTA-PEG4}-CEYDEEFFTALKRLRGGDICYYIQAKFQYLPKLCIEEILDNLGCS (disulfide 1-34, 20-44) [Compound C117] have tissue uptake at 4 h under 2 %ID/g?
[A] not met

[Q] Quick check: does {DOTA-PEG4}-CEYDEQFFTALARLRGGDICYYIQEQFATVPGLCIEEILDQLGCS (disulfide 1-34, 20-44) [Compound C129] have tissue uptake at 4 h under 2 %ID/g?
[A] met
